# Target or system: T1, GRIP1_7, Q9Y3R0
# T1 sequence (Q9Y3R0 999-1096, limits assumed, looked up): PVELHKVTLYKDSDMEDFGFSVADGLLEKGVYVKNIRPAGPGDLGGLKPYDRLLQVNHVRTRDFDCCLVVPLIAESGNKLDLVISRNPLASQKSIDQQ
# Assay procedure: holdup assay
# Design: key: below the threshold = too weak to quantify, mostly under pKd 3.1 to 4
# Condition label: plain residues with an end cap or a label only (N-terminal biotin on a linker: ttds)
Reported property: pKd

PVRVCEETSL [OTULIN, Q96BN8]	3.75
PRVKPQRSKV [PPP1R13L, Q8WUF5]	below the threshold
RHTTSTETAV [HPV30-E6, P36809]	below the threshold
QRQARSETLV [HPV59-E6, Q81964]	below the threshold
